system.under.test: Ubiquitin-activating enzyme e1, putative (Leishmania donovani (strain BPK282A1))
Sequence (whole entry): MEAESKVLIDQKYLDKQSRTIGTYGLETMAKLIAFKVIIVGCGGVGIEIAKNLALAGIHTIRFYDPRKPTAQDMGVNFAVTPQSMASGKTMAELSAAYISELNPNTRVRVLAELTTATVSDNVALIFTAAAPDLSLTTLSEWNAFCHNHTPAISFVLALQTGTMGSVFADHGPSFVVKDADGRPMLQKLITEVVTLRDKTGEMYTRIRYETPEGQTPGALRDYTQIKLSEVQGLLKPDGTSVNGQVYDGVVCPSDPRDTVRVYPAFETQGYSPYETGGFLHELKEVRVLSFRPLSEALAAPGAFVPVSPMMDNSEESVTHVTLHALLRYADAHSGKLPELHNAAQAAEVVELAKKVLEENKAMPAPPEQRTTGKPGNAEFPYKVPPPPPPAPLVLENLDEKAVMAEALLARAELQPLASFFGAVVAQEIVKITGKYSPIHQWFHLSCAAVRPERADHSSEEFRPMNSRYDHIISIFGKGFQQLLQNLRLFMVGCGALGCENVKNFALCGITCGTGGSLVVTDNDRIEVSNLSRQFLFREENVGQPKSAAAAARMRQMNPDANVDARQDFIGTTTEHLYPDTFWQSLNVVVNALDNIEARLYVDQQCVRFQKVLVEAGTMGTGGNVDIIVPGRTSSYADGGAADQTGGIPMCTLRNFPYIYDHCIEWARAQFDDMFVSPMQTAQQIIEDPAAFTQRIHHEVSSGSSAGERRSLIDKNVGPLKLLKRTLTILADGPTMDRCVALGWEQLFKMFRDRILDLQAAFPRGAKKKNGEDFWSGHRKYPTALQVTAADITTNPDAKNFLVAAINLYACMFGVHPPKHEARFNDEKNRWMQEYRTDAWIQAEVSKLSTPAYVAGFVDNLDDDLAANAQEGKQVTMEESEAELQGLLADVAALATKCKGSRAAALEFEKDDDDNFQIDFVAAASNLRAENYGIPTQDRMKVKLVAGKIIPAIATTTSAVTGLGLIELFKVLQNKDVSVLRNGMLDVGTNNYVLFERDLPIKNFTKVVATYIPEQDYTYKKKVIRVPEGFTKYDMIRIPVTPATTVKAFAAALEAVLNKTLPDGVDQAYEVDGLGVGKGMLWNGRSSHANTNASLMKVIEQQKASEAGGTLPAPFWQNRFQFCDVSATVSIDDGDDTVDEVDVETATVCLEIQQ
protocol.summary: Leishmania donovani Ubiquitin Activating Enzyme (LdE1)
Assay type: functional
Parameters: scale not given: direction of the effect not stated beside the values
condition.context: 30 µM
Entries with a potency or affinity are not part of this list.
reported.metric: Percent Effect

>  <compound>
O=C(c1cccs1)N1CCC2(C1)c1ccccc1S(=O)(=O)N2CC1CC1 (stereo not drawn)

>  <reported.metric>
Percent Effect

>  <test.result>
2.67%

$$$$
>  <compound>
Cc1ccc(C#N)c(N2CCC(c3nccn3CCN(C)C)CC2)n1

>  <reported.metric>
Percent Effect

>  <test.result>
2.67%

$$$$
>  <compound>
CC(C)(C)c1nc(CN2CCCC2CCc2ccccc2)no1 (stereo not drawn)

>  <reported.metric>
Percent Effect

>  <test.result>
-2.6%

$$$$
>  <compound>
O=C(c1nc(-c2ccc3cc[nH]c3c2)no1)N1CCCC1

>  <reported.metric>
Percent Effect

>  <test.result>
-12%

$$$$
>  <compound>
Cn1cnc(S(=O)(=O)NCCN2CCCCCC2=O)c1Cl

>  <reported.metric>
Percent Effect

>  <test.result>
5.41%

$$$$
>  <compound>
O=C(NCC1CC1)Nc1cnc2cc(Cl)ccc2c1O

>  <reported.metric>
Percent Effect

>  <test.result>
12.2%

$$$$
>  <compound>
CC(C)c1noc(CCCC(=O)N2CCN(Cc3ccncc3)CC2)n1

>  <reported.metric>
Percent Effect

>  <test.result>
22.8%

$$$$
>  <compound>
O=C1[C@H]2CC[C@H](CN(C3CSCCSC3)C2)N1Cc1cscn1

>  <reported.metric>
Percent Effect

>  <test.result>
2.74%

$$$$
>  <compound>
Clc1ccc(OCCN2CCN(CCn3cncn3)CC2)cc1

>  <reported.metric>
Percent Effect

>  <test.result>
-5.41%

$$$$
>  <compound>
Cc1cccc(NC(=O)c2sccc2C)n1

>  <reported.metric>
Percent Effect

>  <test.result>
23.7%

$$$$
>  <compound>
CCNC(=O)c1nc2c(s1)CCCN2S(C)(=O)=O

>  <reported.metric>
Percent Effect

>  <test.result>
24%

$$$$
>  <compound>
O=C(NCCN1CCCCCC1=O)c1ccn(-c2ccc(F)cc2)n1

>  <reported.metric>
Percent Effect

>  <test.result>
13.5%

$$$$
>  <compound>
CN(C)c1cc2c(nn1)CCN(C(=O)C1CCc3ccccc31)C2 (stereo not drawn)

>  <reported.metric>
Percent Effect

>  <test.result>
5.06%

$$$$
>  <compound>
Cc1ccoc1C(=O)NCC(Cc1ccc(F)cc1)C(N)=O (stereo not drawn)

>  <reported.metric>
Percent Effect

>  <test.result>
18.2%

$$$$
>  <compound>
CC(C)c1nc(C2CCCN2C(=O)c2cnc[nH]2)no1 (stereo not drawn)

>  <reported.metric>
Percent Effect

>  <test.result>
8.11%

$$$$
>  <compound>
CS(=O)(=O)N1C[C@@H]2CC[C@H](C1)N(Cc1cscn1)C2=O

>  <reported.metric>
Percent Effect

>  <test.result>
11%

$$$$
>  <compound>
Cc1cc(C[S+]([O-])CC(=O)NCc2cccs2)no1 (stereo not drawn)

>  <reported.metric>
Percent Effect

>  <test.result>
10.4%

$$$$
>  <compound>
Cc1cc(C[C@@H]2COC[C@H]2NCc2ccc(Br)s2)on1

>  <reported.metric>
Percent Effect

>  <test.result>
1.35%

$$$$
>  <compound>
Cc1noc(C)c1CN(C)CC1CCCN1c1cccnn1 (stereo not drawn)

>  <reported.metric>
Percent Effect

>  <test.result>
13%

$$$$
>  <compound>
O=C(NCc1ccccn1)NC1CCOc2ccccc21 (stereo not drawn)

>  <reported.metric>
Percent Effect

>  <test.result>
24.3%

$$$$
>  <compound>
CC(=O)c1cc(CC(=O)NCc2ccc(CN(C)C)cc2)cs1

>  <reported.metric>
Percent Effect

>  <test.result>
8.11%

$$$$
>  <compound>
CC(C)c1nc(C2CCCN2CC(=O)N2CCc3ccccc32)no1 (stereo not drawn)

>  <reported.metric>
Percent Effect

>  <test.result>
-7.89%

$$$$
>  <compound>
Cc1cc(CN(C)Cc2cc3c(cc2OC(F)F)OCO3)on1

>  <reported.metric>
Percent Effect

>  <test.result>
2.7%

$$$$
>  <compound>
CN1CCCC1CNC(=O)CCCOc1ccc(F)cc1 (stereo not drawn)

>  <reported.metric>
Percent Effect

>  <test.result>
0%

$$$$
>  <compound>
CC1CCCCN1CCNC(=O)c1ccn(-c2ccc(F)cc2)n1 (stereo not drawn)

>  <reported.metric>
Percent Effect

>  <test.result>
18.9%

$$$$
>  <compound>
N#Cc1ccccc1C(=O)N1CCC2(CC(=O)NC2=O)C1 (stereo not drawn)

>  <reported.metric>
Percent Effect

>  <test.result>
10.8%

$$$$
>  <compound>
CS(=O)(=O)NC[C@@H]1OC[C@H]2CN(C(=O)c3ccc[nH]3)CC[C@H]21

>  <reported.metric>
Percent Effect

>  <test.result>
-187%

$$$$
>  <compound>
CN1CCN(Cc2cscn2)CC(C(=O)N(C)C)C1 (stereo not drawn)

>  <reported.metric>
Percent Effect

>  <test.result>
18.7%

$$$$
>  <compound>
Nc1nc2c(c(=O)[nH]1)CCN(C(=O)c1cccc3nccnc13)C2

>  <reported.metric>
Percent Effect

>  <test.result>
10.4%

$$$$
>  <compound>
O=C(c1cc(Cl)c2c(c1)OCO2)N1CCN(c2ccccn2)CC1

>  <reported.metric>
Percent Effect

>  <test.result>
5.48%

$$$$
>  <compound>
CN(C)C(=O)N1CCN(C(=O)CCc2ccccc2)[C@H]2CS(=O)(=O)C[C@H]21

>  <reported.metric>
Percent Effect

>  <test.result>
5.41%

$$$$
>  <compound>
CC(C)(C)N1CC(C(=O)N2CCN(CCn3cccc3)CC2)CC1=O (stereo not drawn)

>  <reported.metric>
Percent Effect

>  <test.result>
10.7%

$$$$
>  <compound>
CS(=O)(=O)CCC(=O)NC1(c2cccc(Br)c2)CC1

>  <reported.metric>
Percent Effect

>  <test.result>
13.5%

$$$$
>  <compound>
COCC(=O)N1CCCn2c(CN3CCCCC3)nnc2C1

>  <reported.metric>
Percent Effect

>  <test.result>
11%

$$$$
>  <compound>
CC(C)(NCC(=O)NCCC#N)c1ccc2c(c1)OCCO2

>  <reported.metric>
Percent Effect

>  <test.result>
27%

$$$$
>  <compound>
Cc1ccc(C(=O)N2CCN(CC(O)c3ccc(F)cc3)CC2)s1 (stereo not drawn)

>  <reported.metric>
Percent Effect

>  <test.result>
7.89%

$$$$
>  <compound>
Cn1cnc2c(N3CCCC3)nc(C3CCNCC3)cc21

>  <reported.metric>
Percent Effect

>  <test.result>
13.3%

$$$$
>  <compound>
CCS(=O)(=O)N1CCC[C@]2(C(=O)N(C)C)CN(c3ccccn3)C[C@@H]2C1

>  <reported.metric>
Percent Effect

>  <test.result>
5.33%

$$$$
>  <compound>
CN(C)C[C@H]1OC[C@@H]2CCN(C(=O)c3ccco3)C[C@@H]21

>  <reported.metric>
Percent Effect

>  <test.result>
-2.7%

$$$$
>  <compound>
Cc1nn(C)c(C)c1CCC(=O)N1CCCC1Cn1cccn1 (stereo not drawn)

>  <reported.metric>
Percent Effect

>  <test.result>
-2.7%

$$$$
>  <compound>
Cc1cnc2c(S(=O)(=O)NCC3CCS(=O)(=O)C3)cccc2c1 (stereo not drawn)

>  <reported.metric>
Percent Effect

>  <test.result>
21.1%

$$$$
>  <compound>
Cc1nc(C)n(CC2CCCCN2Cc2nnc(C3CC3)o2)n1 (stereo not drawn)

>  <reported.metric>
Percent Effect

>  <test.result>
2.6%

$$$$
>  <compound>
Cc1nc(COC[C@@H]2CC[C@H]3[C@H](CCN3S(C)(=O)=O)O2)cs1

>  <reported.metric>
Percent Effect

>  <test.result>
8.11%

$$$$
>  <compound>
CC(C)c1nc2n(n1)CC(NCc1ccncc1)CC2 (stereo not drawn)

>  <reported.metric>
Percent Effect

>  <test.result>
5.26%

$$$$
>  <compound>
CN(CC(=O)N(C)C1CCCCC1)C1CCc2ccccc21 (stereo not drawn)

>  <reported.metric>
Percent Effect

>  <test.result>
7.89%

$$$$
>  <compound>
CN(C)CCNC(=O)CNC(=O)N1CCc2c([nH]c3ccc(Cl)cc23)C1

>  <reported.metric>
Percent Effect

>  <test.result>
-1.33%

$$$$
>  <compound>
Fc1ccc(OCCCN2CCOC(Cn3cncn3)C2)cc1 (stereo not drawn)

>  <reported.metric>
Percent Effect

>  <test.result>
-3.8%

$$$$
>  <compound>
COC(=O)c1sccc1S(=O)(=O)NCC1(O)CCOc2ccccc21 (stereo not drawn)

>  <reported.metric>
Percent Effect

>  <test.result>
0%

$$$$
